Tested on: T1, human CD3 expressed on cells (Jurkat cells; human primary T cells) (human, UniProt P07766 23-207; P04234 22-171; P09693 23-182)
T1 construct: whole, on cells
T1 sequence (P07766 23-207, chain 1 of 3): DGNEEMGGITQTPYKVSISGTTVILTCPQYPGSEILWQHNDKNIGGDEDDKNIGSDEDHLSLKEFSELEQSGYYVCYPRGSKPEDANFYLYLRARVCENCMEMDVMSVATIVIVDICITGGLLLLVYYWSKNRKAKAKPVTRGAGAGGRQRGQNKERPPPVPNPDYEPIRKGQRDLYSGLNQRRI
T1 sequence (P04234 22-171, chain 2 of 3): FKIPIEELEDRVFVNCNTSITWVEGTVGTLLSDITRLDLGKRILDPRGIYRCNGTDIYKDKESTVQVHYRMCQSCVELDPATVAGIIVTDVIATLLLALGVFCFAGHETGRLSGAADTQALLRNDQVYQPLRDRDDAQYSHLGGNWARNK
T1 sequence (P09693 23-182, chain 3 of 3): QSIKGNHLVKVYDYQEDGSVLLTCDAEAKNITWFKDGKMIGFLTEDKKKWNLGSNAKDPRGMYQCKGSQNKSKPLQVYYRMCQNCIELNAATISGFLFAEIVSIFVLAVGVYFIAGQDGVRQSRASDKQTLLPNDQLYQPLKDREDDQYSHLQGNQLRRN
Assay info: flow cytometry, 25 nM, human primary T cells
Quantity measured: Binding (FOI)
One number for each entry, in FOI.

Worked examples follow.
Binder: mAb 290 (antibody, V domains shown, VH/VL only) VH: EVQLVESGGGVVRPGGSLRLSCAASGFTFDDYGMSWVRQAPGKGLEWVSGISWNGGSTGYADSVKGRFTISRDNAKNSLYLQMNSLRAEDTALYHCARDGVPVVKRRYYYYYMDVWGKGTTVTVSS VL: EIVLTQSPDFQSVTPKEKITITCRASQSIGSSLHWYQQKPDQSPKLLIKYASQSFSGVPSRFSGSGSGTDFTLTINSLEAEDAATYYCHQSASLPQTFGQGTKVEIK
Result units: FOI
Binding (FOI): 99.8
--
Binder: mAb 205 (antibody, V domains shown, VH/VL only) VH: QVQLVESGGGVVQPGKSLRLSCAASGFTFSGYGMHWVRQAPGKGLEWVAIIYYNGKKEYYADSVKGRFTISRDNSKNTLYLQMNSLRAEDTAVYYCTRGEGYNWFDPWGQGTLVTVSS VL: EIVMTQSPATLSVSPGERATLSCRASQSVSSNLAWYQQKPGQAPRLLIYGASTRATGIPARFSGSGSGTEFTLTISSLQSEDFAVYYCKQYNNWPLTFGGGTKVEIK
Result units: FOI
Binding (FOI): 216
--
Binder: mAb 214 (antibody, V domains shown, VH/VL only) VH: EVQLLESGGGLVQPGGSLRLSCAASGFTFSNYAMNWVRQAPGKGLEWVSAISGSRSNTYYADSVKGRFTISRDNSKNTLYLQMNSLRAEDTAVYYCAKGAYSKYPYYYYMDVWGKGTTVTVSS VL: EIVMTQSPATLSLSPGERATLSCRASQSVSSSYLSWYQQKPGQAPRLLIYGASTRAIGIPARFSGSGSGTDFTLTISSLQAEDFAVYYCQQDDNLPWTFGQGTKVEIK
Result units: FOI
Binding (FOI): 162
--
Binder: mAb 260 (antibody, V domains shown, VH/VL only) VH: EVQLLESGGGLVQPGGSLRLSCVASGFTFRSSSMAWVRQAPGKGLEWVSGIRGSGGRTYDAESVKGRFIISRDTSKNTLYLQMNSLRGEDTAEYFCAKLYDYYNDYMDVWGKGTTVTVSS VL: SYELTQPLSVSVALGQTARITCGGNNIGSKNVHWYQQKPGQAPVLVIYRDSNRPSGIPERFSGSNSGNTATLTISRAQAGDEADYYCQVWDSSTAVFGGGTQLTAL
Result units: FOI
Binding (FOI): 219
--
Binder: mAb 230 (antibody, V domains shown, VH/VL only) VH: EVQLLESGGGLVQPGGSLRLSCAASGFTFSSYAMSWVRQAPGKGLEWVSSISGSGGSRYYADSVKGRFTISRDNSKNTLYLQMNSLRAEDTAVYYCAKDPVQDRYYFYYYYMDVWGKGTTVTVSS VL: EIVLTQSPDFQSVTPKEKVTITCRASQSIGSSLHWYQQKPDQSPKLLIKYASQSISGVPSRFSGSGSGTDFTLTINSLEAEDAAAYYCHQSSSLPHTFGQGTKLEIK
Result units: FOI
Binding (FOI): 55.3
--
Binder: mAb 264 (antibody, V domains shown, VH/VL only) VH: EVQLLESGGGLVQPGGSLRLSCVASGFTFRSSSMTWVRQAPGKGLEWVSGIRGSGGRTYDAESVKGRFTISRDNSKNTLYLQMNSLRAEDTAEYYCAKLYDYYNDYMDVWGKGTTVTVSS VL: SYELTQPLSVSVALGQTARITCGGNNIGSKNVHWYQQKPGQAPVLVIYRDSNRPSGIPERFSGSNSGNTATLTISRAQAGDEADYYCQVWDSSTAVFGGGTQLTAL
Result units: FOI
Binding (FOI): 220
--
Binder: mAb 195 (antibody, V domains shown, VH/VL only) VH: QEQLVESGGGVVQSGRSLRLSCVASGFKFSGYGMHWVRQAPGKGLEWVAIIYYDGKNKYYADSVKGRFTISRDNSKNTLYLQMNSLRAEDTAVYYCTRGAGYNWFDSWGQGTLVTVSS VL: EIVMTQSPATLSVSPGERATLSCRASQSVRNNLAWYQQKPGQAPRLLIYGVSTRATAFPARFSGSGSGTEFTLTISSLQSEDFAVYYCQQYNNWPLTFGGGTKVEIK
Result units: FOI
Binding (FOI): 226
--
Binder: mAb 219 (antibody, V domains shown, VH/VL only) VH: QEQLVESGGGVVQPGGSLRLSCAASGFMFSGYGMHWVRQAPGKGLEWVAIIWYNGRKTYYTESVKGRFTISRDNSKNTLSLQMNSLRVEDTAVYYCTAGQGYNWFDPWGQGTLVTVSS VL: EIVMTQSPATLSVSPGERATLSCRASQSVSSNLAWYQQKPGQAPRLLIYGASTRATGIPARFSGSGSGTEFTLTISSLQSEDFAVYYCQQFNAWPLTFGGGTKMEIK
Result units: FOI
Binding (FOI): 245
--
Binder: mAb 193 (antibody, V domains shown, VH/VL only) VH: QVQLVESGGGVVQPGRSLRLSCAASGFTFSGYGMHWVRQAPGKGLEWVAIIYYNGNNRKYADSVKGRFTISRDNSKNTVSLQMNSLRVEDTAIYYCTRGDGYNWFVTWGQGTLVTVSS VL: EIVMTQSPATLSVSPGERATLSCRASQSVSSNLAWYHQKPGQAPRLLIYGASTRATGIPVRFSGSGSGTEFTLTISSLQSDDFAVYYCQQYNNWPLTFGGGTKVEIK
Result units: FOI
Binding (FOI): 206

Now look at this one.
Input: Which Binding (FOI) value belongs to mAb 251 (antibody, V domains shown, VH/VL only) VH: EVQILESGGGLVQPGGSLRLSCVASGFTFRSYVMSWVRRAPGRGLEWVSGISASGGNTYYADSVKGRFTISRDNSKNTLFLQMNGLRAEDTAVYYCAKLFSYYYYFMDVWGKGTTVTVSS VL: SYELTQPLSVSVALGQTARITCGGNNIGSKDVHWYQQKPGQAPVLVIYRDSNRPSGIPERFSGSNSGNTATLTISGAQAGDEADYYCQVWDRRTAVFGGGTQLTAL ?
Output: 297

These measurements were taken from patent US20230295310A1.
